Recorded values, source the supplement of paper PMC3334620.

Attribute: PBM E-score
- Study System: Hap1 (UniProt P0CE41)
- Sequence (P0CE41 whole entry): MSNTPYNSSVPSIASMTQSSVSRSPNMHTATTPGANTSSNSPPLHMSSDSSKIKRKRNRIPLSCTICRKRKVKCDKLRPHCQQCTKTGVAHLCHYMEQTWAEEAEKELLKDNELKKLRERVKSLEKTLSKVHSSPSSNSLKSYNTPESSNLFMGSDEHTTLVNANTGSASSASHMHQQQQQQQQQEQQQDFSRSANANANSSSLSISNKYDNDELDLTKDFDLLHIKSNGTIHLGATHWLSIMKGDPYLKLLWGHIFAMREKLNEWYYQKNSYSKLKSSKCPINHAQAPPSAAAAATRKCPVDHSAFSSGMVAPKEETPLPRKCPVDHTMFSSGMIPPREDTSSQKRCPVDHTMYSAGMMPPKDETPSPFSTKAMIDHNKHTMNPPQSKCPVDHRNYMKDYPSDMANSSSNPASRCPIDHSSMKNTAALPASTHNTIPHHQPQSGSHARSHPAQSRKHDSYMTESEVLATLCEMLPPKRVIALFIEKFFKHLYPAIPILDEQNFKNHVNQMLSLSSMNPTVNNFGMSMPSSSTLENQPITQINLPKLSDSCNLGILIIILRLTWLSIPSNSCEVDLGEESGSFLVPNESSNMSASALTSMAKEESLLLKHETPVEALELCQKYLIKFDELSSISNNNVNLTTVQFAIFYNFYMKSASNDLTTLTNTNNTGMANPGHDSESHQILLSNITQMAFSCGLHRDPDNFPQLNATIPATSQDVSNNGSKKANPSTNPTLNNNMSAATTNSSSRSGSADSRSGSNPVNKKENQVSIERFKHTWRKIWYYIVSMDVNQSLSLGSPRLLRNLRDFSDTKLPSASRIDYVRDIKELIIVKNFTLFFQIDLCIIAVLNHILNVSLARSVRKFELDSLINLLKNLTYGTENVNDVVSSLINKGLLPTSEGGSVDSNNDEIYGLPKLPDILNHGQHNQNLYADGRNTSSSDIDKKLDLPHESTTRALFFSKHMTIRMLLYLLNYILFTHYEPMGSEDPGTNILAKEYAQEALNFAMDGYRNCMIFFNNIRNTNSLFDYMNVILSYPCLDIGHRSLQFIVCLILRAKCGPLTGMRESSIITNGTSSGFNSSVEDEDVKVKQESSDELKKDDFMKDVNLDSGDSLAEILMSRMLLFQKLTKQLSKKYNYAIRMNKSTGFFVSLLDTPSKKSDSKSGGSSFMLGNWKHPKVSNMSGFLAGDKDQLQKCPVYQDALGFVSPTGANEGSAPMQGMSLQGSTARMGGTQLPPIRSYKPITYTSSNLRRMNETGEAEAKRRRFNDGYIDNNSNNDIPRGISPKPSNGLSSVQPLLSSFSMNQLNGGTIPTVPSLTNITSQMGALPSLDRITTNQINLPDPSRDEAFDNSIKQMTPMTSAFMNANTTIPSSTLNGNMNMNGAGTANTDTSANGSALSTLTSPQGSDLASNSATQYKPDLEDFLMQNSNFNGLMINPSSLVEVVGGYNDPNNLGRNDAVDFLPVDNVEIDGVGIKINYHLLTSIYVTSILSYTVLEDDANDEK
- Run Description: PBM E-score (8-mer binding enrichment) (E-score (-0.5 to 0.5)); higher = stronger / more preferred TF binding
- Condition Summary: protein concentration: 200 nM; construct: GST-DNA-binding domain
In all, about 33,000 sequences were measured (“E-score (-0.5 to 0.5)”: median about -0.053, highest 2% from about 0.37 on). What follows is part of a selection rich in the highest values, with near analogues and random picks from the rest.
Readout Kind: PBM E-score

Item Sequence: ACTGGACA
Study System: Hap1 (UniProt P0CE41)
Readout Kind: PBM E-score
Observed Value: -0.00994
//
Item Sequence: AGATAAGC
Study System: Hap1 (UniProt P0CE41)
Readout Kind: PBM E-score
Observed Value: -0.0608
//
Item Sequence: ATGTTAGA
Study System: Hap1 (UniProt P0CE41)
Readout Kind: PBM E-score
Observed Value: -0.336
//
Item Sequence: ATGGAGTC
Study System: Hap1 (UniProt P0CE41)
Readout Kind: PBM E-score
Observed Value: -0.104
//
Item Sequence: AGTTGAGC
Study System: Hap1 (UniProt P0CE41)
Readout Kind: PBM E-score
Observed Value: -0.188
//
Item Sequence: CGCCCGCA
Study System: Hap1 (UniProt P0CE41)
Readout Kind: PBM E-score
Observed Value: 0.189
//
Item Sequence: CGCGTGGA
Study System: Hap1 (UniProt P0CE41)
Readout Kind: PBM E-score
Observed Value: -0.079
//
Item Sequence: AATCCCGG
Study System: Hap1 (UniProt P0CE41)
Readout Kind: PBM E-score
Observed Value: 0.397
//
Item Sequence: ACAATCCC
Study System: Hap1 (UniProt P0CE41)
Readout Kind: PBM E-score
Observed Value: 0.254
//
Item Sequence: AGTTTCTA
Study System: Hap1 (UniProt P0CE41)
Readout Kind: PBM E-score
Observed Value: -0.167
//
Item Sequence: AAATCGGC
Study System: Hap1 (UniProt P0CE41)
Readout Kind: PBM E-score
Observed Value: 0.303
//
Item Sequence: TATGTACA
Study System: Hap1 (UniProt P0CE41)
Readout Kind: PBM E-score
Observed Value: -0.124
//
Item Sequence: CTATCGTC
Study System: Hap1 (UniProt P0CE41)
Readout Kind: PBM E-score
Observed Value: -0.0802
//
Item Sequence: ATATCGTC
Study System: Hap1 (UniProt P0CE41)
Readout Kind: PBM E-score
Observed Value: 0.0615
//
Item Sequence: CGGCATTA
Study System: Hap1 (UniProt P0CE41)
Readout Kind: PBM E-score
Observed Value: 0.459
//
Item Sequence: CAATCTGA
Study System: Hap1 (UniProt P0CE41)
Readout Kind: PBM E-score
Observed Value: -0.151
//
Item Sequence: AGCCCGCC
Study System: Hap1 (UniProt P0CE41)
Readout Kind: PBM E-score
Observed Value: 0.184
//
Item Sequence: TAGATAGA
Study System: Hap1 (UniProt P0CE41)
Readout Kind: PBM E-score
Observed Value: -0.111
//
Item Sequence: CAATTTGC
Study System: Hap1 (UniProt P0CE41)
Readout Kind: PBM E-score
Observed Value: -0.103
//
Item Sequence: GAAAGAGC
Study System: Hap1 (UniProt P0CE41)
Readout Kind: PBM E-score
Observed Value: -0.138
//
Item Sequence: CCCGGAAA
Study System: Hap1 (UniProt P0CE41)
Readout Kind: PBM E-score
Observed Value: 0.411
//
Item Sequence: CTCAGGAA
Study System: Hap1 (UniProt P0CE41)
Readout Kind: PBM E-score
Observed Value: -0.108
//
Item Sequence: CGATCGGC
Study System: Hap1 (UniProt P0CE41)
Readout Kind: PBM E-score
Observed Value: 0.312
//
Item Sequence: ATATCGCG
Study System: Hap1 (UniProt P0CE41)
Readout Kind: PBM E-score
Observed Value: 0.314
//
Item Sequence: AATCCCCC
Study System: Hap1 (UniProt P0CE41)
Readout Kind: PBM E-score
Observed Value: 0.133
//
Item Sequence: CGGGGTGA
Study System: Hap1 (UniProt P0CE41)
Readout Kind: PBM E-score
Observed Value: 0.214
//
Item Sequence: ACCTTACT
Study System: Hap1 (UniProt P0CE41)
Readout Kind: PBM E-score
Observed Value: 0.105
//
Item Sequence: GACGGAAA
Study System: Hap1 (UniProt P0CE41)
Readout Kind: PBM E-score
Observed Value: 0.314
//
Item Sequence: AACCAAGT
Study System: Hap1 (UniProt P0CE41)
Readout Kind: PBM E-score
Observed Value: -0.152
//
Item Sequence: CAACCCAC
Study System: Hap1 (UniProt P0CE41)
Readout Kind: PBM E-score
Observed Value: -0.131
//
Item Sequence: CGCTCGTA
Study System: Hap1 (UniProt P0CE41)
Readout Kind: PBM E-score
Observed Value: 0.0559
//
Item Sequence: GCCGGATA
Study System: Hap1 (UniProt P0CE41)
Readout Kind: PBM E-score
Observed Value: 0.426
//
Item Sequence: CAGTAGGC
Study System: Hap1 (UniProt P0CE41)
Readout Kind: PBM E-score
Observed Value: -0.174
//
Item Sequence: CTCGTAGC
Study System: Hap1 (UniProt P0CE41)
Readout Kind: PBM E-score
Observed Value: -0.117
//
Item Sequence: AGACACTC
Study System: Hap1 (UniProt P0CE41)
Readout Kind: PBM E-score
Observed Value: -0.185
//
Item Sequence: CTTTCAGC
Study System: Hap1 (UniProt P0CE41)
Readout Kind: PBM E-score
Observed Value: 0.0716
